The measurements presented in this section are drawn from patent US20240270821A1.

List of EC50 values.
- tested.on: hGIPR (Homo sapiens, UniProt P48546)
- Sequence (P48546 22-466): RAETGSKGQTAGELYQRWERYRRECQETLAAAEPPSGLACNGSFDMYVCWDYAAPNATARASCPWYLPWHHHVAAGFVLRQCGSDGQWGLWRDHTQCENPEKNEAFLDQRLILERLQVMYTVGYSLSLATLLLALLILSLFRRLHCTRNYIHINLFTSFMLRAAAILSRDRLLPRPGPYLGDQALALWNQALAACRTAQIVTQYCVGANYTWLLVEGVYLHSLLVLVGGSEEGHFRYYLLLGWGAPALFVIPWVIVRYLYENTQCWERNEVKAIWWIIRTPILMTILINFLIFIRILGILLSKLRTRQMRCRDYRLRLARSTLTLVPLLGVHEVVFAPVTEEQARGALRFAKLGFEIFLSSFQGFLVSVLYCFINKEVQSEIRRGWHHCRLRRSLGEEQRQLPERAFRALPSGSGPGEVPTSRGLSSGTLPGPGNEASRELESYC
- method: Functional cAMP activation in the presence of 0.1% casein (no HSA);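 further: intracellular cAMP rise after 30 min at 37 °C read by HTRF against a standard curve, scaled between buffer alone (0%) and top control ligand concentration (100%), four-parameter fit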
- Type: cell-based
- assay.context: in the presence of 0.1% casein (no HSA); geometric mean; read-out: Relative cAMP EC50, hGIPR
Starred links: 1 amine or outer side, 2 acyl side, 3 side chain; linkers in the order of their positions; H or OH if unused. Non-standard residues stand in square brackets, D forms with d. Groups on a side chain read outwards from the residue. *: point of attachment. C20 diacid = O=C(O)CCCCCCCCCCCCCCCCCCC(=O)*; C18 diacid = O=C(O)CCCCCCCCCCCCCCCCC(=O)*; αMePhe(2-F) = C[C@](N)(Cc1ccccc1F)C(=O)O; γGlu = O=C(O)[C@H](CCC(=O)[*:2])N[*:1]; αMe4Pal = C[C@](N)(Cc1ccncc1)C(=O)O; 4Pal = N[C@@H](Cc1ccncc1)C(=O)O; αMeL = CC(C)C[C@](C)(N)C(=O)O; Orn = NCCC[C@H](N)C(=O)O; AEEA = NCCOCCOCC(=O)O; Aib = CC(C)(N)C(=O)O
Use nM as the unit, but write only the number.

>>> meas_value("H-Y[Aib]QGT[αMePhe(2-F)]TSDYSILLDKQAQK([AEEA-AEEA-γGlu-C20 diacid])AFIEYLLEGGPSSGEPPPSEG-NH2 [Example 345]")
0.0377

What value of EC50 has been reported for the following substance? H-Y[Aib]QGTFTSDFSI[αMeL]LDKK([AEEA-γGlu-C20 diacid])AQ[Aib]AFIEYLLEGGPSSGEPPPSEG-NH2 [Example 288]
0.234

Quick one: H-Y[Aib]QGTFTSD[4Pal]SK[αMeL]LDKK([AEEA-γGlu-C18 diacid])AQ[αMe4Pal]AFIEYLIE[Aib]GPSSGAPPPSGS-NH2 [Example 915]
0.0988

Quick one: H-Y[Aib]QGTFTSDFS[Orn][αMeL]LDKK([AEEA-AEEA-γGlu-C18 diacid])AQ[Aib]AFIEYLLE[Aib]GHSSGAPPPSGE-NH2 [Example 186]
0.107

Quick one: H-Y[Aib]QGTFTSDFS[Orn][αMeL]LDKK([AEEA-γGlu-C20 diacid])AQ[Aib]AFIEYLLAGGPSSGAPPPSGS-NH2 [Example 76]
0.196

Quick one: H-Y[Aib]QGT[αMePhe(2-F)]TSDYSKLLDKIAQK([AEEA-γGlu-C20 diacid])AFIEYLIEGGPSSGAPPPSGE-NH2 [Example 356]
0.0613
